- test: Brain uptake: brain and plasma levels by mass spectrometry
- assay setup: male, CD-1, mouse, brain, intraperitoneal, 30 mg/kg

compound: COC(=O)C1[C@@H](OC(=O)c2ccccc2)CC2CCC1(C)N2C (stereo partly shown)
concentration at 5 min / ng/mL: 8600

---

- test: Brain uptake: brain and plasma levels by mass spectrometry
- assay setup: male, CD-1, mouse, plasma, intraperitoneal, 30 mg/kg
observation type: concentration at 5 min

molecule: COC(=O)C1[C@@H](OC(=O)c2ccccc2)CC2CCC1(C)N2C (stereo partly shown)
result: 3300 ng/mL

---

- test: Brain uptake: brain and plasma levels by mass spectrometry
- assay setup: male, CD-1, mouse, brain, intraperitoneal, 30 mg/kg
observation type: concentration at 30 min

compound: COC(=O)C1[C@@H](OC(=O)c2ccccc2)CC2CCC1(C)N2C (stereo partly shown)
observation type: concentration at 30 min
result: 3800 ng/mL

---

The reader will find pKi measurements below, all made with human SERT (Homo sapiens, UniProt P31645).
Sequence (P31645 whole entry): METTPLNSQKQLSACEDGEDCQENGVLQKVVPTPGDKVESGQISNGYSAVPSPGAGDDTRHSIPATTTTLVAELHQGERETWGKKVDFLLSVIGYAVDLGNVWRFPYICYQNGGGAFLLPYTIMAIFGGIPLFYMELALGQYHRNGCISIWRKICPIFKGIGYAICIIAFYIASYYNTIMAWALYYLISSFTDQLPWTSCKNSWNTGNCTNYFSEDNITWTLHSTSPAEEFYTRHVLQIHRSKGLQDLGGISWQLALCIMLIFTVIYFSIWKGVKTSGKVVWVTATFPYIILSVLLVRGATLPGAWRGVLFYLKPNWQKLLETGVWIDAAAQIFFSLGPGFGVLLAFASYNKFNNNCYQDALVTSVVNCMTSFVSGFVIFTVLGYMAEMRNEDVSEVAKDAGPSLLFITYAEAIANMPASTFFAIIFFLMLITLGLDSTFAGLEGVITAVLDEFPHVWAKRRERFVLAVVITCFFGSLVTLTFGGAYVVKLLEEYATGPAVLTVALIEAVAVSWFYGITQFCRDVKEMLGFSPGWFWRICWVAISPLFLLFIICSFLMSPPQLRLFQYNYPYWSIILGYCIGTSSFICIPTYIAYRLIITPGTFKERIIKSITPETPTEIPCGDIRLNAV
pKi: −log10 of the molar value.

compound: CCCCC[C@@]12CC[C@@H](C[C@H](OC(=O)c3ccccc3)[C@@H]1C(=O)OC)N2C [Compound 11c]
pKi: 5.72

compound: COC(=O)[C@H]1[C@@H](OC(=O)c2ccccc2)C[C@@H]2CC[C@@]1(c1ccccc1)N2C [Compound 11d]
pKi: 6.01

compound: COC(=O)C1[C@@H](OC(=O)c2ccccc2)CC2CCC1(C)N2C (some centres unmarked)
pKi: 6.36

compound: CC[C@@]12CC[C@@H](C[C@H](OC(=O)c3ccccc3)[C@@H]1C(=O)OC)N2C [Compound 11b]
pKi: 5.96

compound: CCC[C@@]12CC[C@@H](C[C@H](OC(=O)c3ccccc3)[C@@H]1C(=O)OC)N2C [Compound 11a]
pKi: 5.52

---

- test target: human DAT (Homo sapiens, UniProt Q01959)
- Construct: cells as described by Chen et al., J. Neurochem; 2004, 89:853-864
- Sequence (Q01959 whole entry): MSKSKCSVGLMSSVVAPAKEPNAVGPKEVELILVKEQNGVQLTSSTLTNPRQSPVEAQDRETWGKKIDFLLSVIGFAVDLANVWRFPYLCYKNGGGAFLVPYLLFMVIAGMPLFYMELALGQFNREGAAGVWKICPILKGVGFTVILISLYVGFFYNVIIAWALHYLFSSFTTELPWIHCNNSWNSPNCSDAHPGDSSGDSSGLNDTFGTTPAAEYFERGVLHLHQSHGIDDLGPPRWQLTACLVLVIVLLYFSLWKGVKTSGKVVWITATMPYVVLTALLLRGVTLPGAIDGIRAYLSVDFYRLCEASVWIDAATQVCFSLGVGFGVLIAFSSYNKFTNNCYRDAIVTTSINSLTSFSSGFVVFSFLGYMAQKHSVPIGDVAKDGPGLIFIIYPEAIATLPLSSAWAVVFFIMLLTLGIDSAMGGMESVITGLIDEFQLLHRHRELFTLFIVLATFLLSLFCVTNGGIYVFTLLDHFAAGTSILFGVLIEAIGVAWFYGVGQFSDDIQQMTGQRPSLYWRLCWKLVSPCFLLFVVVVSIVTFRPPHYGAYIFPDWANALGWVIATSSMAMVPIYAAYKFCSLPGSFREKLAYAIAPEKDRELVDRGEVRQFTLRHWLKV
- test: Inhibition of [3H]DA uptake in cells expressing cloned human DAT
pKi: −log10 of the molar value.
Record Criterion met whenever pKi is at 7 or higher; record Criterion not met when lower.

compound: COC(=O)[C@H]1[C@@H](OC(=O)c2ccccc2)C[C@@H]2CC[C@@]1(c1ccccc1)N2C [Compound 11d]
category: Criterion met
//
compound: CCC[C@@]12CC[C@@H](C[C@H](OC(=O)c3ccccc3)[C@@H]1C(=O)OC)N2C [Compound 11a]
category: Criterion not met
//
compound: COC(=O)C1[C@@H](OC(=O)c2ccccc2)CC2CCC1(C)N2C (some centres unmarked)
category: Criterion not met
//
compound: CCCCC[C@@]12CC[C@@H](C[C@H](OC(=O)c3ccccc3)[C@@H]1C(=O)OC)N2C [Compound 11c]
category: Criterion not met

This collection of values is drawn from patent US8557842B2.
